Target: Mineralocorticoid receptor (Homo sapiens, UniProt P08235)
Sequence (P08235 whole entry): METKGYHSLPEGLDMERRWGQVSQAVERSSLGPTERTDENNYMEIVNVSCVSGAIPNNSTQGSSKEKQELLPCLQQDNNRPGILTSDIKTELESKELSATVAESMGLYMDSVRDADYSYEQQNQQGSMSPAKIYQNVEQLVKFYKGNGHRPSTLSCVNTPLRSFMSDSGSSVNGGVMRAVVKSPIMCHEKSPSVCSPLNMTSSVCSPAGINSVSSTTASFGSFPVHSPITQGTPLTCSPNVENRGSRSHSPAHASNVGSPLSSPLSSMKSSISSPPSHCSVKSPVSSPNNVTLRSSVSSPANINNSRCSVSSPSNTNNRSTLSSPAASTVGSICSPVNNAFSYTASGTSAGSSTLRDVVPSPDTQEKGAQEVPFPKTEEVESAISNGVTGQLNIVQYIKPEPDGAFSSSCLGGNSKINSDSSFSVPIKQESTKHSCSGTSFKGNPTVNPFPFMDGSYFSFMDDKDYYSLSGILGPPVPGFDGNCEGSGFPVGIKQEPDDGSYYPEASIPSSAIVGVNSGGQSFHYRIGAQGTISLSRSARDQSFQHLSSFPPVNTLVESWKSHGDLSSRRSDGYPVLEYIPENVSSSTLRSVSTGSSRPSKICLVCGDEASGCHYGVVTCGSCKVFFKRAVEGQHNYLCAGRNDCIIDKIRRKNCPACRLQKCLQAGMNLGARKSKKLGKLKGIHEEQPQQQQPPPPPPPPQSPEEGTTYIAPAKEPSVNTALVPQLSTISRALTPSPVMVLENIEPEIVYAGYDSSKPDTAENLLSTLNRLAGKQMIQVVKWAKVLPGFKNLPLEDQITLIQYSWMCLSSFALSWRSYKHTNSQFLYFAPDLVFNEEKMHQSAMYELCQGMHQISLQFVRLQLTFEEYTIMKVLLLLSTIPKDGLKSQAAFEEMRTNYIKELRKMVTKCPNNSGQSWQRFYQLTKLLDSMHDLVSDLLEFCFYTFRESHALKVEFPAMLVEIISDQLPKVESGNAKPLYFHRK
pKi: −log10 of the molar value.
metric: pKi

For orientation, consider the following solved cases.
NC(=O)C[C@H]1COCc2cc(F)ccc2N1C(=O)c1ccc2c(c1)NC(=O)CO2
< 5.00
CNC(=O)C[C@H]1COc2cc(F)ccc2N1C(=O)c1ccc2c(c1)NC(=O)OC2
< 5.20
C[C@H]1CCc2cc(F)ccc2N1C(=O)c1ccc2c(c1)NC(=O)CO2
6.90

Would you be so kind as to report pKi for each listed record?
1. CCNC(=O)CC1COc2cc(F)ccc2N1C(=O)c1ccc2c(c1)NC(=O)CO2 (racemic)
2. CC(C)Cc1cc2c(cc1F)OC[C@H](CS(N)(=O)=O)N2C(=O)c1ccc2c(c1)NC(=O)CO2

Outgoing:
< 5.00
> 9.50
